Source of measurements: the supplement of paper PMC10126150

# Test system: ATP;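 note: ATP exposure 15 min at 22 °C before imaging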
# Assay summary: switch fluorescence ratio, 500 uM ATP over buffer (Cy3 cluster intensity, sum of 5 cycles each) (fold (ratio)); higher = stronger signal-on switching upon ATP binding; sequences stand for … in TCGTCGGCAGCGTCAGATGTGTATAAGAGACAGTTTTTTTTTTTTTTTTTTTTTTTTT…TC
# Condition info: aptamer strand: ATP DNA aptamer (quencher-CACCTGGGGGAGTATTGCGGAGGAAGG + anchor), 100 nM annealed; ATP concentration: 500 uM
Endpoint: switch fluorescence ratio
In your answer, state the number alone without any accompanying words.

Example sequences with recorded switch fluorescence ratio:
CTTCATAAGT :: 0.983
TATCGGGATA :: 0.994

Q: Find the recorded switch fluorescence ratio belonging to ACCCGGGGTT and report it.
Ans: 0.994

---

# Tested on: ATP;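 note: ATP exposure 15 min at 22 °C before imaging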
# Assay summary: switch fluorescence ratio, 500 uM ATP over buffer (Cy3 cluster intensity, sum of 5 cycles each) (fold (ratio)); higher = stronger signal-on switching upon ATP binding; sequences stand for … in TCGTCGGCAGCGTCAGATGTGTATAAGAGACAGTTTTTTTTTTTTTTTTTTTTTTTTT…TC
# Condition info: aptamer strand: ATP DNA aptamer (quencher-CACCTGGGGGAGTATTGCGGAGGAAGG + anchor), 100 nM annealed; ATP concentration: 500 uM
Endpoint: switch fluorescence ratio
In your answer, state the number alone without any accompanying words.

AAGTTGATTG :: 1.02
GGGGCTATGT :: 1.08
GGGTTTCGTT :: 0.99
TGATGATATG :: 0.993
TATTGTGCGG :: 1.01
TTAACGCCGC :: 1.13

Q: Find the recorded switch fluorescence ratio belonging to TTCGGCGGGT and report it.
Ans: 1.03

Q: Queued: AAAGAATTCA
Ans: 1.05

Q: Queued: GGTAATAGGG
Ans: 0.996

Q: Queued: TTCCAATTAG
Ans: 0.968

Q: Queued: TTATTAATCG
Ans: 0.963

Q: Queued: GTCCAGGGGA
Ans: 1.04

Q: Queued: CAGTCGACGG
Ans: 0.993

---

# Tested on: ATP;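 note: ATP exposure 15 min at 22 °C before imaging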
# Assay summary: switch fluorescence ratio, 500 uM ATP over buffer (Cy3 cluster intensity, sum of 5 cycles each) (fold (ratio)); higher = stronger signal-on switching upon ATP binding; sequences stand for … in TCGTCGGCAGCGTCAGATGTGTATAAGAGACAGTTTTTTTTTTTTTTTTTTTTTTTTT…TC
# Condition info: aptamer strand: ATP DNA aptamer (quencher-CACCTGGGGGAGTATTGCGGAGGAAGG + anchor), 100 nM annealed; ATP concentration: 500 uM
If the reported switch fluorescence ratio equals or exceeds 1, assign true. If not, assign false.

Some entries whose results are on file:
ACATAGCTTG :: true
CGAGGGGTAC :: true
GAGAGGAGGC :: true
GGGGCTTGCG :: false
GCAATCGGAG :: true
GGGTGGGGCG :: true
TTTCGTATAC :: true
TTTTAGGTGT :: true

Q: Determine whether this sequence has switch fluorescence ratio no lower than 1: CGGTTTTGTG
Ans: false

Q: Queued: AAATGTTACA
Ans: true

Q: Queued: CGTCGGTAAG
Ans: true

Q: Queued: GGCCGTATCT
Ans: true

Q: Queued: GCAGTATCAC
Ans: true

Q: Queued: TCTCAGCAAA
Ans: true

Q: Queued: TTTCTTAGTT
Ans: true

Q: Queued: AAGAGGGTAA
Ans: false

Q: Queued: CACTCTAGGC
Ans: true
